# Tested on: HeLa
# assay text: Primary qHTS to identify gynecologic anti-cancer compounds using libraries of approved drugs and bioactive compounds (AID 1345084); further: nearly all actives have a fitted effect of over 55% in size
# run conditions: Gynecologic cancer cell panel viability, ATPlite luminescence, 48 h; series mostly up to 57.5 µM
Inconclusive results are not listed. Active and inactive are the calls of the source. The call rests on the fitted dose curve; in most records, active means well fitted cell-killing curve with a large enough effect; inconclusive means small, poorly fitted or top-dose-only effect, or effect the other way; inactive means flat fitted curve, though single readings scatter.
Mark one answer only. Choices: 1 for active, -1 for inactive

- structure: "C[C@H]1O[C@@H](O[C@H]2CC[C@@]3(C)[C@H](CC[C@@H]4[C@@H]3C[C@@H](O)[C@]3(C)[C@@H](C5=CC(=O)OC5)CC[C@]43O)C2)C[C@H](O)[C@@H]1O[C@H]1C[C@H](O)[C@H](O[C@H]2C[C@H](O)[C@H](O[C@@H]3O[C@H](CO)[C@@H](O)[C@H](O)[C@H]3O)[C@@H](C)O2)[C@@H](C)O1"
  qualitative label: 1
- structure: "CCCCCCCCCCCCCCCC(=O)O"
  qualitative label: -1

Enquiry: Which outcome was assigned to CCCCc1cc2ccccc2c(OCCN(C)C)n1 in this test?
Return: -1
